// protein stability index lookup, one value per entry
B1: ZNF8 (parent)
chain: SLGRHKRTHTGEKPYTCSVCGKSF

- Variants of: B1
- EXPERIMENT NOTES: protein stability index of a GFP-peptide fusion (GPS, HEK-293T) (PSI 1-6); higher = more stable;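 further: lentivirally expressed fusions sorted by FACS into six bins by GFP to DsRed ratio, PSI derived from sequencing read proportions per bin multiplied by bin number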
- SETUP CONDITIONS: c terminus: a fixed tail appended
Answer as a number with no unit attached.

Use these answered entries as a reference point.
SLGRHKRTHTGEKPYWCSVCGKSF [T16W] = 2.33
SLGRHKRTHTGEGPYTCSVCGKSF [K13G] = 2.61
SHGRHKRTHTGEKPYTCSVCGKSF [L2H] = 4.09
SLGRHKRTHTGEKTYTCSVCGKSF [P14T] = 3.77
ILGRHKRTHTGEKPYTCSVCGKSF [S1I] = 2.18

The recorded protein stability index for SKGRHKRTHTGEKPYTCSVCGKSF [L2K] is 3.66

The recorded protein stability index for SLGRHKRTHTGEKPYTPSVCGKSF [C17P] is 3.17

The recorded protein stability index for SLGRHKRTHTGEKPYMCSVCGKSF [T16M] is 2.85

The recorded protein stability index for SLGRHKRTHTGEKPYTCSDCGKSF [V19D] is 3.5

The recorded protein stability index for SLGRHKRTHTGEKPYACSVCGKSF [T16A] is 2.95
